assay: NCI Yeast Anticancer Drug Screen. Data for the mec2-1 strain (AID 157); conditions: S. cerevisiae mec2-1 strain, at 50.0 µM, hits give high values
Compounds without any hit were thinned out: in the full panel of roughly 79,000, 15% have a hit.
assay readout: growth inhibition (%)
Give the value, in units of %, as a plain number.

**Q:** Provide one value: measured growth inhibition of CCOC(=O)Cc1ccc2c(c1)sc1nc(-c3ccc(OC)cc3)cn12
**A:** 19.5

**Q:** Provide one value: measured growth inhibition of N#CC1(Cc2ccccc2[N+](=O)[O-])c2ccccc2C2C(N1C(=O)c1ccccc1)C2(Cl)Cl (centres undefined)
**A:** 23.7

**Q:** Provide one value: measured growth inhibition of O=c1c2c(oc3cc(OCC4CO4)ccc13)CCC2 (centres undefined)
**A:** -7.7

**Q:** Provide one value: measured growth inhibition of C=C(C)CS(=O)(=O)O
**A:** 3.45

**Q:** Provide one value: measured growth inhibition of CN(C)CCC1(C2=CCCC2)CC/C(=C\c2ccccc2)C1=O (centres undefined)
**A:** -17.8

**Q:** Provide one value: measured growth inhibition of C[N+]1(C)N=C([O-])N(c2ccccc2F)C1=O
**A:** -7.35

**Q:** Provide one value: measured growth inhibition of CC(C)N(CC(c1ccccc1)C(C)(O)c1ccccc1)C(C)C (centres undefined)
**A:** 15.7

**Q:** Provide one value: measured growth inhibition of NC(CCCCNC(=O)OCc1ccccc1)C(=O)OCc1ccccc1 (centres undefined)
**A:** -20.4

**Q:** Provide one value: measured growth inhibition of OC(c1cc(C(F)(F)F)nc2c(Cl)cc(Cl)cc12)C1CCCCN1 (centres undefined)
**A:** -22.4

**Q:** Provide one value: measured growth inhibition of C=CCCCCCCCCCCCCCCCCC
**A:** -24.1

**Q:** Provide one value: measured growth inhibition of O=C(O)c1[nH]c(=O)[nH]c(=O)c1Br
**A:** -22.9

**Q:** Provide one value: measured growth inhibition of CC[O-].Cc1ccc2cccc([O-])c2n1.Cc1ccc2cccc([O-])c2n1.Cc1ccc2cccc([O-])c2n1.[Ti+4]
**A:** -5.75

**Q:** Provide one value: measured growth inhibition of CSc1cccc(NC(=S)NN/C(=N/S(=O)(=O)c2ccccc2)N2CCCC2)c1
**A:** -17.6

**Q:** Provide one value: measured growth inhibition of CN(C)CCOc1c(Cc2ccccc2)ccc2cccnc12
**A:** 5.15

**Q:** Provide one value: measured growth inhibition of Cc1cccc(C)c1NC(=O)N(Cc1ccccc1)Cc1ccccc1
**A:** 15.2

**Q:** Provide one value: measured growth inhibition of CC(=O)NC1C(O)C(NC(C)=O)C(OC(C)=O)C(OC(C)=O)C1OC(C)=O (centres undefined)
**A:** -9.7

**Q:** Provide one value: measured growth inhibition of CCOC(=O)C1CCCCC1NC1CCCCC1C(=O)OCC (centres undefined)
**A:** -2.35

**Q:** Provide one value: measured growth inhibition of O=C1C2C3CCC(C3)C2N1Cc1ccccc1 (centres undefined)
**A:** -1.65

**Q:** Provide one value: measured growth inhibition of CCN(CC)CCNc1ccc2ncn3c4c(OC)cccc4c(=O)c1c23
**A:** -17.1

**Q:** Provide one value: measured growth inhibition of COC(=O)/C=C(C)/C=C/C1OC(C)OCC1O (centres undefined)
**A:** 2.3

**Q:** Provide one value: measured growth inhibition of COc1ccc(C2=C(N)c3cc(OC)ccc3C2=O)cc1
**A:** 12.3

**Q:** Provide one value: measured growth inhibition of CC(=O)c1ccc(C(C)=O)c(OCc2ccccc2)c1
**A:** -12.4

**Q:** Provide one value: measured growth inhibition of CC1(c2ccccc2)SCCS1
**A:** 2.05

**Q:** Provide one value: measured growth inhibition of C=C1CC2(CCC3C4CC=C5CC(O)CCC5(C)C4CCC32C)OC1=O (centres undefined)
**A:** 11.7
